Overview of reported GI50 across a group of compounds:
System: OVCAR-4 ovarian
measurement.protocol: NCI tumour cell line growth inhibition, 48 h

Find the measured GI50: item Nc1cc(N)c2nc(-c3ccccc3)c(NCc3ccc(F)cc3)nc2c1 , target or system OVCAR-4 ovarian.
1.69 µM

Find the measured GI50: item COc1cc2c3c(n(C)c(=O)c2cc1OC)-c1cc2c(cc1/C3=C\C(N)CN)OCO2 (centres undefined) , target or system OVCAR-4 ovarian.
5.44 µM

Find the measured GI50: item C/C=C/C=C/CCCCCCCCCCCCCC1(OC)C=CC(CC(=O)OC)OO1 (centres undefined) , target or system OVCAR-4 ovarian.
1.15 µM
